- TARGET_ENTITY: Neuropeptide S receptor (Homo sapiens)
- ASSAY_PROTOCOL: Confirmation Concentration-Response Assay for Antagonists of the Neuropeptide S Receptor: Robust Characterization of Calcium Signal Transduction
- CONDITION: CHO-NPSR cells, NPS-induced calcium fluorescence (FDSS); series mostly up to 31.6 µM
Records with an inconclusive call do not appear. Active and inactive are the calls of the source. Calls come from the whole dose curve; as a rule, active = well fitted inhibition curve with a large enough effect; inconclusive = small, poorly fitted or top-dose-only effect, or another doubt; inactive = no such curve, though single readings can be large or run the other way.
MEASURE_NAME: Potency

1. COc1cccc(C2c3c(ncn(-c4ccc5c(c4)OCO5)c3=N)Oc3ccc4ccccc4c32)c1 (stereo not given)	43.8 nM (active)
2. COc1ccc(C2c3c(ncn(CCN4CCOCC4)c3=N)Oc3ccc4ccccc4c32)cc1OC (stereo not given)	438 nM (active)
3. COc1cccc(C2c3c(ncn(-c4ccccc4Cl)c3=N)Oc3ccc4ccccc4c32)c1 (stereo not given)	4380 nM (active)
4. COc1cccc(C2c3c(ncn(-c4cccc(C)c4)c3=N)Oc3ccc4ccccc4c32)c1 (stereo not given)	3910 nM (active)
5. COc1ccc(C2c3c(ncn(Cc4ccccc4)c3=N)Oc3ccc4ccccc4c32)cc1OC (stereo not given)	619 nM (active)
6. N=c1c2c(ncn1-c1ccccc1)Oc1ccc3ccccc3c1C2c1ccc2c(c1)OCCO2 (stereo not given)	276 nM (active)
7. COc1cccc(C2c3c(ncn(CCN4CCOCC4)c3=N)Oc3ccc4ccccc4c32)c1 (stereo not given)	1740 nM (active)
8. COc1cccc(C2c3c(ncn(-c4ccccc4Br)c3=N)Oc3ccc4ccccc4c32)c1 (stereo not given)	2760 nM (active)
9. CCOC(=O)c1ccc(-n2cnc3c(c2=N)C(c2cccc(OC)c2)c2c(ccc4ccccc24)O3)cc1 (stereo not given)	2460 nM (active)
10. CCC(C)(CCN1CCOCC1)N(Cc1cc2ccccc2n(C)c1=O)C(=O)C1CCCCC1 (stereo not given)	1.35 nM (active)

Measured values drawn from PubChem BioAssay AID434931 for this set.
